Values from PubChem BioAssay AID1986

Answer each item with its documented inhibition.
Experiment: inhibitors of HIV fusion peptide binding, primary screen, biochemical, uHTS, fluorescence dequenching (AID 1986)
Conditions: cell-free peptide binding, 30 min, at 20 µM, stronger effect = higher value
Out of some 290,000 compounds screened, about 890 (0.31%) were called active. Shown is part of a subset that was picked to be rich in actives.
Give your result in % as a bare value.

Challenge: So what's the measured inhibition for this one? COc1cc(/C=C2\N=C(c3ccccc3)OC2=O)ccc1OC(C)=O
Response given: 1.1

Challenge: So what's the measured inhibition for this one? COc1ccc(Cc2nc3ccc(C(=O)N(C)CCc4cnn(C)c4)cc3o2)cc1OC
Response given: 0.7

Challenge: So what's the measured inhibition for this one? CCCN1CCN(c2nc(-c3cccs3)nc3ccccc23)CC1
Response given: 0.8

Challenge: So what's the measured inhibition for this one? CCn1nc([N+](=O)[O-])c(C(C#N)c2nc3ccccc3n2C)c(Cl)c1=O (configuration not stated)
Response given: 9.2

Challenge: So what's the measured inhibition for this one? Cc1ccc(CN2CCC(n3nccc3NC(=O)C3CCOC3)CC2)cc1C (configuration not stated)
Response given: -0.8

Challenge: So what's the measured inhibition for this one? Cc1cc(NC(=O)CSCC(=O)N(c2cccc(Cl)c2)C(C(=O)NC2CCCCC2)c2ccc(O)c(O)c2)no1 (configuration not stated)
Response given: 11.2

Challenge: So what's the measured inhibition for this one? COc1c(O)cc2c(c1O)C(=O)CC(c1ccccc1)O2 (configuration not stated)
Response given: -1.5

Challenge: So what's the measured inhibition for this one? O=C(/C=C/Nc1cccc(F)c1)c1ccco1
Response given: 1.5

Challenge: So what's the measured inhibition for this one? O=C1/C(=C/c2ccncc2)SC(=S)N1N1CCOCC1
Response given: -1.3

Challenge: So what's the measured inhibition for this one? COc1ccccc1NC(=O)c1nn(-c2ccc(F)c(F)c2)ccc1=O
Response given: -0.5

Challenge: So what's the measured inhibition for this one? O=C(CC1Sc2ccccc2NC1=O)NCc1cccc(Cl)c1 (configuration not stated)
Response given: 1

Challenge: So what's the measured inhibition for this one? Cc1occc1-c1nnc(SCC(=O)N2CCN(c3ccccc3F)CC2)n1C
Response given: 0.2

Challenge: So what's the measured inhibition for this one? O=C(O)c1ccc(-n2cccc2/C=C2/SC(=O)N(CC(=O)N3CCCC3)C2=O)cc1
Response given: 33.4

Challenge: So what's the measured inhibition for this one? CCCn1nc([N+](=O)[O-])c(C(C#N)c2nc3ccccc3s2)c(Cl)c1=O (configuration not stated)
Response given: 52.4

Challenge: So what's the measured inhibition for this one? C[C@H](NC(=O)C1CCN(S(=O)(=O)c2ccccc2)CC1)C(=O)NCc1cccc(Cl)c1
Response given: -1.4

Challenge: So what's the measured inhibition for this one? C[C@@H]1Cc2c(O)c(O)cc(O)c2C(=O)O1
Response given: 27.3

Challenge: So what's the measured inhibition for this one? Cc1cc(C(F)F)n2ncc(C(=O)NC3CCCCCC3)c2n1
Response given: 3.7

Challenge: So what's the measured inhibition for this one? Cc1c(C(=O)Nc2cccnc2Cl)oc2ccccc12
Response given: -1

Challenge: So what's the measured inhibition for this one? COc1ccc(C)cc1S(=O)(=O)N1CCN(c2ccccc2)CC1
Response given: -0.9

Challenge: So what's the measured inhibition for this one? COc1ccc(OC)c(/C=C2\N=C(c3ccccc3)OC2=O)c1
Response given: 60.8

Challenge: So what's the measured inhibition for this one? CCN(CC)c1ccc2c(c1)oc(=O)c1c(Cl)cc(=O)oc12
Response given: 106

Challenge: So what's the measured inhibition for this one? COc1ccc(/C=C2\N=C(c3ccc(C)cc3)OC2=O)cc1
Response given: 1.1
